assayedSystem: TRPML3 (Homo sapiens, UniProt Q8TDD5)
Construct: expressed in transfected cells
Sequence (Q8TDD5 whole entry): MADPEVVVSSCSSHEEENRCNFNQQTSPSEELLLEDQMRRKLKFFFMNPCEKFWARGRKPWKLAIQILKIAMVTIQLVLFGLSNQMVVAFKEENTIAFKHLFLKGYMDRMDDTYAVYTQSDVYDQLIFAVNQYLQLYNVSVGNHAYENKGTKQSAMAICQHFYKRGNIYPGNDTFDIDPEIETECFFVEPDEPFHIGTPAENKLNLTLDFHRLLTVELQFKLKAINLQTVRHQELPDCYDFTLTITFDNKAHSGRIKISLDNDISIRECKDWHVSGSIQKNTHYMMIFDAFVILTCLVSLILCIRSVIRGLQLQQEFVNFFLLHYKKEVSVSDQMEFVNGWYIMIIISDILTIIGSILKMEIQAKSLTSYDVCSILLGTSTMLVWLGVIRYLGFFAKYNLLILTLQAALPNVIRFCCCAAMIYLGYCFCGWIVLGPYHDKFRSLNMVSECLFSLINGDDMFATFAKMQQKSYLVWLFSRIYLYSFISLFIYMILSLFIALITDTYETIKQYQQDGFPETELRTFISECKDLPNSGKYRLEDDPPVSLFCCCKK
method: Fluorescent TRPML3 assay (as for TRPML1)
Type: cell-based
conditionContext: Table 3, compounds 101-177
Each entry below lists one item and its recorded EC50 value.

Lookup: Identify the reported EC50 for the following entry. `C[C@H]1CN(C(=O)C(C)(C)C)CCN1c1ncnc2c1c(-c1ccccc1F)cn2-c1cc(C#N)ccn1`
Found: < 100 nM

Lookup: Identify the reported EC50 for the following entry. `Cc1nccnc1-c1cn(-c2cc(C#N)ccn2)c2ncnc(N3C[C@@H](C)N(C(=O)CC(C)C)C[C@@H]3C)c12`
Found: > 2000 nM

Lookup: Identify the reported EC50 for the following entry. `C[C@H]1CN(C(=O)C2(F)CC2)CCN1c1ncnc2c1c(-c1ccccc1F)cn2-c1cc(C#N)ccn1`
Found: < 100 nM

Lookup: Identify the reported EC50 for the following entry. `C[C@@H]1CN(c2ncnc3c2c(-c2ccccc2F)cn3-c2cc(C#N)ccn2)CCN1C(=O)C(C)(C)C`
Found: < 100 nM

Lookup: Identify the reported EC50 for the following entry. `Cc1nccnc1-c1cn(-c2cccc(Cl)c2)c2ncnc(N3C[C@@H](C)N(C(=O)CC(C)C)C[C@@H]3C)c12`
Found: > 2000 nM

Lookup: Identify the reported EC50 for the following entry. `Cc1nccnc1-c1cn(-c2cccc(Cl)c2)c2ncnc(N3C[C@@H](C)N(C(=O)C(C)C)C[C@@H]3C)c12`
Found: > 2000 nM

Lookup: Identify the reported EC50 for the following entry. `CC(C)C(=O)N1CCN(c2ncnc3c2c(-c2ccccc2F)cn3-c2cc(C#N)ccn2)[C@H](C)C1`
Found: < 100 nM

====

assayedSystem: TRPML2 (Homo sapiens, UniProt Q8IZK6)
Construct: expressed in transfected cells
Sequence (Q8IZK6 whole entry): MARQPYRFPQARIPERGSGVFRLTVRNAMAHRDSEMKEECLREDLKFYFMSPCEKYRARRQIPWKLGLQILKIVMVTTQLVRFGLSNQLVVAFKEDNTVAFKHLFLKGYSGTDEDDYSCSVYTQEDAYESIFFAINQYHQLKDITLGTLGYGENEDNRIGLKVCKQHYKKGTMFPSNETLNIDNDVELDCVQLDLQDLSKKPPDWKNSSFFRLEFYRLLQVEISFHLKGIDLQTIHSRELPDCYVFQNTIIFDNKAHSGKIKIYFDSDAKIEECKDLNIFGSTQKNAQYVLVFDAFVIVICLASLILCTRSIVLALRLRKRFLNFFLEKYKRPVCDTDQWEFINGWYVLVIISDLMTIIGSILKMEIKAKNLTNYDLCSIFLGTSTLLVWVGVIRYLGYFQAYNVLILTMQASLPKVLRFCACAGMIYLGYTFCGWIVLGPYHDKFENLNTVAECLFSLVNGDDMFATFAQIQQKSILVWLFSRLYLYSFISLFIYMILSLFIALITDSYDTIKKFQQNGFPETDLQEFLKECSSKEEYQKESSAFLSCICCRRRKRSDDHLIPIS
method: Fluorescent TRPML2 assay (as for TRPML1)
Format: cell-based
conditionContext: Table 3, compounds 101-177
pEC50: −log10 of the molar value.
endpointLabel: pEC50

Below: 3 molecules and their reported pEC50.
molecule	pEC50
CC(C)C(=O)N1CCN(c2ncnc3c2c(-c2ccccc2F)cn3-c2cc(C#N)n(C)n2)[C@@H](C)C1 [Compound 146]	5.70 to 6.30
C[C@H]1CN(C(=O)C(C)(C)C)CCN1c1ncnc2c1c(C1CC1)cn2-c1cc(C#N)ccn1 [Compound 104]	5.70 to 6.30
C[C@H]1CN(C(=O)C2(F)CC2)CCN1c1ncnc2c1c(-c1ccccc1F)cn2-c1cc(C#N)ccn1 [Compound 115]	> 7.00

Switching to the query record.
Lookup: Identify the reported pEC50 for the following entry. C[C@H]1CN(C(=O)C(C)(C)C)CCN1c1ncnc2c1c(-c1ccccc1F)cn2-c1cc(C#N)ccn1 [Compound 103]
Found: > 7.00

====

Each entry below lists one item and its recorded pEC50 value.
assayedSystem: human TRPML1 (Homo sapiens)
Sequence (Q9GZU1 whole entry L15A/L16A/L577A/L578A, form open): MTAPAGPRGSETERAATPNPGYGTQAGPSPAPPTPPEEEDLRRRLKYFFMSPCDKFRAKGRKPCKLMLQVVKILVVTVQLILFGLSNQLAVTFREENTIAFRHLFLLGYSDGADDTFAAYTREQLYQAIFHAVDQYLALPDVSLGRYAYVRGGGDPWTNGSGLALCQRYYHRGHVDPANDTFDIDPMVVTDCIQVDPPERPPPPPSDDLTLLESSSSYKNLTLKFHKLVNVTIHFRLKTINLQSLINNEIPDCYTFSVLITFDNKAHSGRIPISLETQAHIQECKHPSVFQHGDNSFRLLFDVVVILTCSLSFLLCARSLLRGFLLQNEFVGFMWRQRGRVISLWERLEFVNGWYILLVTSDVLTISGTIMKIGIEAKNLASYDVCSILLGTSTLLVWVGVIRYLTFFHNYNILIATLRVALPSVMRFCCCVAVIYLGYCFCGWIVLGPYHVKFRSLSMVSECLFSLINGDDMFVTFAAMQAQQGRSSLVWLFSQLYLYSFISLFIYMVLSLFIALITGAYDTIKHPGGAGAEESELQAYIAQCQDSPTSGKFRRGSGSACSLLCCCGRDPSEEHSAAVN
method: Fluorescent TRPML1 assay (Fluo4-AM calcium fluorescence, HEK-293 Trex cells)
Type: cell-based
conditionContext: Table 3, compounds 201-283
pEC50: −log10 of the molar value.

Lookup: Identify the reported pEC50 for the following entry. `C[C@@H]1CN(c2ncnc3c2c(N2CCCC2)cn3-c2cccc(Cl)c2)[C@@H](C)CN1C(=O)C1(F)CC1`
Found: 6.30 to 7.00

Lookup: Identify the reported pEC50 for the following entry. `CC(C)C(=O)N1C[C@H](C)N(c2ncnc3c2c(N2CCC2)cn3-c2cc(C#N)ccn2)C[C@H]1C`
Found: > 7.00

Lookup: Identify the reported pEC50 for the following entry. `COC(C)(C)C(=O)N1CCN(c2ncnc3c2c(N2CCC2)cn3-c2cc(C#N)ccn2)C[C@H]1C`
Found: > 7.00

Lookup: Identify the reported pEC50 for the following entry. `C[C@@H]1CN(c2ncnc3c2c(C2CCC2)cn3-c2cccc(Cl)c2)[C@@H](C)CN1C(=O)C(C)(C)C`
Found: > 7.00

Lookup: Identify the reported pEC50 for the following entry. `C[C@@H]1CN(c2nccc3c2c(C2CC2)cn3-c2cccc(F)c2)[C@@H](C)CN1C(=O)C(C)(C)C`
Found: > 7.00

Lookup: Identify the reported pEC50 for the following entry. `C[C@@H]1CN(c2ncnc3c2c(-c2ccccc2F)cn3-c2cc(C#N)ccn2)[C@@H](C)CN1C(=O)C1(F)CC1`
Found: > 7.00

Lookup: Identify the reported pEC50 for the following entry. `Cc1cn(-c2cc(C(F)(F)F)ccn2)c2ncnc(N3C[C@@H](C)N(C(=O)C(C)(C)C)C[C@@H]3C)c12`
Found: > 7.00

Lookup: Identify the reported pEC50 for the following entry. `COC(C)(C)C(=O)N1C[C@H](C)N(c2ncnc3c2c(N2CCC2)cn3-c2cccc(F)c2)C[C@H]1C`
Found: > 7.00

Lookup: Identify the reported pEC50 for the following entry. `C[C@@H]1CN(c2ncnc3c2c(C2CCC2)cn3-c2cccc(F)c2)[C@@H](C)CN1C(=O)CC(C)(C)C(F)(F)F`
Found: 6.30 to 7.00

Lookup: Identify the reported pEC50 for the following entry. `CC(C)C(=O)N1C[C@H](C)N(c2ncnc3c(-c4cc(C#N)ccn4)cn(-c4ccccc4F)c23)C[C@H]1C`
Found: > 7.00

Lookup: Identify the reported pEC50 for the following entry. `C[C@H]1CN(C(=O)C(C)(C)C)CCN1c1ncnc2c1c(C1CC1)cn2-c1cccc(F)c1`
Found: 6.30 to 7.00

Lookup: Identify the reported pEC50 for the following entry. `COC1(C(=O)N2CCN(c3ncnc4c3c(-c3ccccc3F)cn4-c3cc(C#N)ccn3)[C@@H](C)C2)CC1`
Found: > 7.00

Lookup: Identify the reported pEC50 for the following entry. `C[C@H]1CN(C(=O)C(C)(C)C)CCN1c1nccc2c1c(C1CC1)cn2-c1cccc(F)c1`
Found: > 7.00

Lookup: Identify the reported pEC50 for the following entry. `COC(C)(C)C(=O)N1C[C@H](C)N(c2ncnc3c2c(N2CCC2)cn3-c2cc(C#N)ccn2)C[C@H]1C`
Found: > 7.00

Sourced from patent US20240398812A1
